Origin of values: ChEMBL document CHEMBL3045056

assayOverview: Octanol-water partition coefficient, log K of the compound by reversed-phase HPLC
Assay type: physicochemical
conditionLabel: read-out: log K
Mark 0 (no) for logP values under 0.3, and 1 (yes) for everything at or above.

structure	categoryLabel
CC[C@H](C)[C@@H](OC(C)=O)[C@@H](C)c1cc(O)c2c(c1O)O[C@]1(C)CC[C@H]3O[C@@H](C(C)(C)O)CC[C@]3(C)[C@H]1C2=O	1 (yes)
CC[C@H](C)[C@@H](OC(C)=O)[C@@H](C)C1=CC(=O)C2=C(O[C@]3(C)CC[C@H]4O[C@@H](C(C)(C)O)CC[C@]4(C)[C@H]3[C@@H]2O)C1=O	1 (yes)
C/C=C(\C)C(=O)[C@@H](C)C1=CC(=O)C2=C(O[C@]3(C)CC[C@H]4O[C@@H](C(C)(C)O)CC[C@]4(C)[C@H]3C2)C1=O	0 (no)
C/C=C(\C)[C@@H](OC(C)=O)[C@@H](C)C1=CC(=O)C2=C(O[C@]3(C)CC[C@H]4O[C@@H](C(C)(C)O)CC[C@]4(C)[C@H]3[C@@H]2O)C1=O	0 (no)
CC[C@H](C)[C@@H](O)[C@@H](C)C1=CC(=O)C2=C(O[C@]3(C)CC[C@H]4O[C@@H](C(C)(C)O)CC[C@]4(C)[C@H]3[C@@H]2O)[C@]1(O)CC(C)=O	0 (no)
CC[C@H](C)C(=O)[C@@H](C)C1=CC(=O)C2=C(O[C@]3(C)CC[C@H]4O[C@@H](C(C)(C)O)C[C@H](O)[C@]4(C)[C@H]3C2)C1=O	0 (no)

---

assayOverview: Octanol-water partition coefficient, log K of the compound by reversed-phase HPLC
Assay type: physicochemical
conditionLabel: read-out: log K

structure	logP
CC[C@H](C)C(=O)[C@@H](C)C1=CC(=O)C2=C(O[C@]3(C)CC[C@H]4O[C@@H](C(C)(C)O)CC[C@]4(C)[C@H]3[C@@H]2O)[C@]1(O)CC(C)=O	-0.238
CC[C@H](C)[C@@H](O)[C@@H](C)C1=C(CC(C)=O)C(=O)C2=C(O[C@]3(C)CC[C@H]4O[C@@H](C(C)(C)O)CC[C@]4(C)[C@H]3[C@@H]2O)[C@]1(O)OC	0.31
CC[C@H](C)C(=O)[C@@H](C)c1cc(O)c2c(c1O)O[C@]1(C)CC[C@H]3O[C@@H](C(C)(C)O)CC[C@]3(C)[C@H]1C2=O	0.482
CC[C@H](C)C(=O)[C@@H](C)C1=CC(=O)C2=C(O[C@]3(C)CC[C@H]4O[C@@H](C(C)(C)O)CC[C@]4(C)[C@H]3[C@@H]2O)C1=O	0.091
CC[C@H](C)C(=O)[C@@H](C)C1=CC(=O)C2=C(O[C@]3(C)CC[C@H]4O[C@@H](C(C)(C)O)CC[C@]4(C)[C@H]3C2)C1=O	0.437
